Test system: SMN2 minigene mRNA (SMN2-A minigene) in HEK293H cells
Experiment: SMN2 minigene mRNA splicing RT-qPCR assay in cultured cells
Type: cell-based, human
Conditions: Homo sapiens, HEK293-H; concentration increasing full length SMN2 mRNA 1.5-fold relative to vehicle-treated cells; HEK293H cells with SMN2-A minigene, 24 hours, 7-point concentration data; read-out: EC1.5x for production of full length SMN2 mRNA
Description: The reverse transcription-quantitative PCR-based (RT-qPCR) assay is used to quantify the level of the full length SMN2 minigene mRNA containing SMN2 exon 7 in a HEK293H cell line stably transfected with said minigene and treated with a test compound. Protocol. […] The increase of SMN2 minigene FL mRNA relative to that in cells treated with vehicle control is determined from real-time PCR data using a modified ΔΔCt method (as described in Livak and Schmittgen, Methods, 2001, 25:402-8). […]
Here, each record is paired with measured EC (1.5-fold increase) data.

Use these answered entries as a reference point.
Fill in reported EC (1.5-fold increase) for this entry: CCNC1CCN(c2cc(C)c3nc(-c4ccc(OC)c(OC)c4)cc(=O)n3c2)CC1
< 0.1 µM

Tell me its EC (1.5-fold increase) given CCc1nc(C)cn2nc(-c3cc(=O)n4cc(N5CCN6CCC[C@H]6C5)cc(C)c4n3)cc12 as the entry.
0.1 to 0.3 µM

Supply EC (1.5-fold increase) value. Item: CCc1cc(-c2cc(=O)n3cc(C4CCN(C)CC4)ccc3n2)cn2cc(C)nc12
< 0.1 µM

***
Supply EC (1.5-fold increase) value. Item: COc1ccc(-c2cc(=O)n3cc(N4CCN[C@@H](C)C4)ccc3n2)c(OC)c1
1 to 3 µM

Please list EC (1.5-fold increase) recorded for the compound O=c1cc(-c2cnc3[nH]ccc3c2)nc2ccc(N3CCNCC3)cn12
0.3 to 1 µM

Provide only the value of recorded EC (1.5-fold increase) for C[C@H]1CN(c2ccc3nc(-c4ccc5nn(C)cc5c4)cc(=O)n3c2)CCN1
0.1 to 0.3 µM

Specify EC (1.5-fold increase) for Cc1cn2nc(-c3cc(=O)n4cc(N5CCN(C)[C@@H](C)C5)ccc4n3)cc2c(C)n1 and stop.
< 0.1 µM

Specify reported EC (1.5-fold increase) for the compound shown: CCc1nc(C)cn2nc(-c3cc(=O)n4cc(C5CCN(CCCF)CC5)ccc4n3)cc12
< 0.1 µM

----------
test system: SMN2 minigene mRNA (SMN2-A minigene) in HEK293H cells; test: SMN2 minigene mRNA splicing RT-qPCR assay in cultured cells; format: cell-based, human; details: Homo sapiens, HEK293-H; concentration increasing full length SMN2 mRNA 1.5-fold relative to vehicle-treated cells; HEK293H cells with SMN2-A minigene, 24 hours, 7-point concentration data; read-out: EC1.5x for production of full length SMN2 mRNA
Endpoint: EC (1.5-fold increase)

Given the compound Cc1cn2cc(-c3cc(=O)n4nc(C5CCN(C)CC5)ccc4n3)cc(Cl)c2n1 , write its reported EC (1.5-fold increase).
0.1 to 0.3 µM

More entries:
Annotate the compound Cc1cn2cc(-c3cc(=O)n4cc(N5CCC(N6CCCC6)CC5)ccc4n3)ccc2n1 with its measured EC (1.5-fold increase).
0.1 to 0.3 µM

Input Cc1cn2cc(-c3cc(=O)n4cc(N5CCN(CCO)CC5)ccc4n3)cc(F)c2n1 , output reported EC (1.5-fold increase).
0.1 to 0.3 µM

Consider the compound COc1ccc(-c2cc(=O)n3cc(N4CCNCC4)ccc3n2)cc1 . State its measured EC (1.5-fold increase).
0.3 to 1 µM

Quick one: give measured EC (1.5-fold increase) for COc1ccc(-c2cc(=O)n3cc(N4CCC(N5CCOCC5)CC4)cc(C)c3n2)cc1OC
0.1 to 0.3 µM

Give the measured EC (1.5-fold increase) for CCCN1CCC(c2ccc3nc(-c4cc5c(CC)nc(C)cn5n4)cc(=O)n3c2)CC1
< 0.1 µM

Check the records and state EC (1.5-fold increase) for CCCc1nc(C)cn2nc(-c3cc(=O)n4cc(N5C[C@@H](C)N[C@@H](C)C5)ccc4n3)cc12
0.1 to 0.3 µM

Identify measured EC (1.5-fold increase) associated with O=c1cc(-c2cccnc2)nc2ccc(N3CCNCC3)cn12
1 to 3 µM

Quote EC (1.5-fold increase) reported for COc1cc(-c2cc(=O)n3cc(N4CCNCC4)ccc3n2)ccc1F please.
0.3 to 1 µM

----------
Collected melting point values appear next to each entry.

Worked set:
Given CCN1CCC(c2cc(C)c3nc(-c4ccc5c(cnn5C)c4)cc(=O)n3c2)CC1 , respond with its melting point.
236 to 240 °C

Read off the recorded melting point for Cc1cn2nc(-c3cc(=O)n4cc(N5CCN(C)[C@@H](C)C5)ccc4n3)cc2c(C)n1
220 to 223 °C

Give reported melting point value for Cc1nc2ccc(-c3cc(=O)n4cc(N5CCN(C)[C@@H](C)C5)ccc4c3)cc2o1
> 300 °C

Others:
Report melting point for Cc1cn2cc(-c3cc(=O)n4cc(C5CCN(C(C)C)CC5)ncc4n3)ccc2n1
229 to 231 °C

----------
system: SMN2 minigene mRNA (SMN2-A minigene) in HEK293H cells; assay: SMN2 minigene mRNA splicing RT-qPCR assay in cultured cells; type: cell-based, human; details: Homo sapiens, HEK293-H; concentration increasing full length SMN2 mRNA 1.5-fold relative to vehicle-treated cells; HEK293H cells with SMN2-A minigene, 24 hours, 7-point concentration data; read-out: EC1.5x for production of full length SMN2 mRNA
Recorded EC (1.5-fold increase) values for a group of compounds are listed next.

Reference set, count: 7
Quick one: give measured EC (1.5-fold increase) for COc1ccc(-c2cc(=O)n3cc(N4C[C@H]5CNC[C@H]5C4)ccc3n2)cc1OC [Compound 126]
0.1 to 0.3 µM

Recall and state the measured EC (1.5-fold increase) for COc1cccc(-c2cc(=O)n3cc(N4CCNCC4)ccc3n2)c1 [Compound 22] .
0.3 to 1 µM

Input Cc1cn2cc(-c3cc(=O)n4cc(N5CCN(C(C)C)[C@@H](C)C5)ccc4n3)cc(F)c2n1 [Compound 541] , output reported EC (1.5-fold increase).
0.1 to 0.3 µM

Give reported EC (1.5-fold increase) value for Cc1nc2ccc(-c3cc(=O)n4cc(OC5CCNCC5)ccc4n3)cc2s1 [Compound 286]
0.3 to 1 µM

Return EC (1.5-fold increase) (reported value) for this compound: Cc1cn2cc(-c3ccc4nc(C5=CCN(C)CC5)cc(=O)n4c3)cc(F)c2n1 [Compound 411]
< 0.1 µM

Specify measured EC (1.5-fold increase) for Cc1nc2ccc(-c3cc(=O)n4cc(C5=CCN(CCO)CC5)ccc4n3)cc2s1 [Compound 393] .
< 0.1 µM

Identify EC (1.5-fold increase) associated with the compound Cc1cn2cc(-c3cc(=O)n4cc(C5=CCNCC5)ncc4n3)cc2c(C)n1.Cl.Cl [Compound 413]
< 0.1 µM

API: the following record is the query input.
Specify EC (1.5-fold increase) for CCc1nc(C)cn2nc(-c3cc(=O)n4cc(N5CCN(C6CCC6)CC5)ccc4n3)cc12 [Compound 621] and stop.
0.3 to 1 µM

----------
Reported EC (1.5-fold increase) values for the following compounds.
tested on: SMN2 minigene mRNA (SMN2-A minigene) in HEK293H cells; test: SMN2 minigene mRNA splicing RT-qPCR assay in cultured cells; format: cell-based, human; settings: Homo sapiens, HEK293-H; concentration increasing full length SMN2 mRNA 1.5-fold relative to vehicle-treated cells; HEK293H cells with SMN2-A minigene, 24 hours, 7-point concentration data; read-out: EC1.5x for production of full length SMN2 mRNA

Write down measured EC (1.5-fold increase) (SMN2 minigene mRNA (SMN2-A minigene) in HEK293H cells) for this compound. Cc1cn2cc(-c3cc(=O)n4cc(N5CCN(C)CC5)ccc4n3)cc(F)c2n1
< 0.1 µM

Continue with the compound presented below.
For SMN2 minigene mRNA (SMN2-A minigene) in HEK293H cells, give the measured EC (1.5-fold increase) of the entry O=c1cc(-c2ccc(F)c(C(F)(F)F)c2)nc2ccc(N3CCNCC3)cn12
0.3 to 1 µM

----------
Endpoint: melting point

Please give the documented melting point of Cc1nc2ccc(-c3cc(=O)n4cc(N5CCC(N)C5)ccc4n3)cc2s1 (centres unmarked)
196 to 200 °C

----------
# key: entry, value: melting point

// known answers, use as guide
Report melting point, nothing else, for this molecule: CCc1nc2ccc(-c3cc(=O)n4cc(N5CCNCC5)ccc4n3)cc2o1
170 to 175 °C

Supply reported melting point belonging to this molecule: CCN1CC=C(c2cn3c(=O)cc(-c4ccc5nc(C)oc5c4)nc3cn2)CC1
225 to 227 °C

Give the value of melting point reported for the following: CCN(CC)C[C@@H]1CCN(c2ccc3nc(-c4cc5c(C)nc(C)cn5n4)cc(=O)n3c2)C1
194 to 196 °C

Turning now to a further molecule:
State its melting point: Cc1ccc2nc(-c3cc(=O)n4cc(N5CCNCC5)ccc4n3)cn2c1
193 to 198 °C
